# Species on record: Rattus norvegicus
# run-description: Open TG-GATES - Regimen: Daily Repeat
# Type: toxicity, organism-based, Sprague-Dawley
# Parameters: regimen Daily Repeat, gender Male, age 6 weeks
# run-parameters: in vivo, po, 100 mg/kg, […], tissue Blood, route gavage, dose level Low, time 28 day
measure: Mono (%)
Give the value in % but do not write % after it.

The recorded Mono for CCN1CCCC1CNC(=O)c1cc(S(N)(=O)=O)ccc1OC (centres undefined) [SULPIRIDE] is 1.8

The recorded Mono for CC(C)(S)[C@@H](N)C(=O)O is 1.8

The recorded Mono for O=C(O)c1cccnc1 is 2.4

The recorded Mono for O=C(N[C@H](CO)[C@H](O)c1ccc([N+](=O)[O-])cc1)C(Cl)Cl is 1.2

* * *

Kindly state Hb for each of the entries shown.
# Species on record: Rattus norvegicus
# run-description: Open TG-GATES - Regimen: Daily Repeat
# Assay type: toxicity, organism-based, Sprague-Dawley
# Set-up: regimen Daily Repeat, gender Male, age 6 weeks
# run-parameters: in vivo, po, 100 mg/kg, 72 h, tissue Blood, route gavage, dose level Low, time 3 day
Give the value in g/dL but do not write g/dL after it.

The recorded Hb for O=C(N[C@H](CO)[C@H](O)c1ccc([N+](=O)[O-])cc1)C(Cl)Cl is 13.3

The recorded Hb for CCN1CCCC1CNC(=O)c1cc(S(N)(=O)=O)ccc1OC (centres undefined) [SULPIRIDE] is 13.6

The recorded Hb for CC(C)(S)[C@@H](N)C(=O)O is 13.7

The recorded Hb for O=C(O)c1cccnc1 is 13.7

* * *

Kindly state ALP for each of the entries shown.
# Species: Rattus norvegicus
# run-description: Open TG-GATES - Regimen: Daily Repeat
# Type: toxicity, organism-based, Sprague-Dawley
# Set-up: regimen Daily Repeat, gender Male, age 6 weeks
# run-parameters: in vivo, po, 1000 mg/kg, […], tissue Plasma, route gavage, dose level High, time 7 day
Give the value in IU/L but do not write IU/L after it.

The recorded ALP for O=C(N[C@H](CO)[C@H](O)c1ccc([N+](=O)[O-])cc1)C(Cl)Cl is 1416.6

The recorded ALP for CC(C)(S)[C@@H](N)C(=O)O is 1010.8

The recorded ALP for CCN1CCCC1CNC(=O)c1cc(S(N)(=O)=O)ccc1OC (centres undefined) [SULPIRIDE] is 1461.2

The recorded ALP for O=C(O)c1cccnc1 is 1693.6

* * *

# Organism: Rattus norvegicus
# run-description: Open TG-GATES - Regimen: Daily Repeat
# Assay type: toxicity, organism-based, Sprague-Dawley
# Design: regimen Daily Repeat, gender Male, age 6 weeks
# run-parameters: in vivo, po, 1000 mg/kg, […], tissue Plasma, route gavage, dose level High, time 28 day
measure: TG (mg/dL)
Give the value in mg/dL but do not write mg/dL after it.

The recorded TG for O=C(N[C@H](CO)[C@H](O)c1ccc([N+](=O)[O-])cc1)C(Cl)Cl [CHLORAMPHENICOL] is 74.8

The recorded TG for CC(C)(S)[C@@H](N)C(=O)O [PENICILLAMINE] is 45.4

The recorded TG for O=C(O)c1cccnc1 [NIACIN] is 184

The recorded TG for CCN1CCCC1CNC(=O)c1cc(S(N)(=O)=O)ccc1OC (centres undefined) [SULPIRIDE] is 87.2

* * *

# Species on record: Rattus norvegicus
# run-description: Open TG-GATES - Regimen: Daily Repeat
# Type: toxicity, organism-based, Sprague-Dawley
# Design: regimen Daily Repeat, gender Male, age 6 weeks
# run-parameters: in vivo, po, 100 mg/kg, 72 h, tissue Blood, route gavage, dose level Low, time 3 day
Kindly state Fbg for each of the entries shown.
Answer format reminder: number followed by unit.

The recorded Fbg for O=C(O)c1cccnc1 is 317.2 mg/dL

The recorded Fbg for CCN1CCCC1CNC(=O)c1cc(S(N)(=O)=O)ccc1OC (centres undefined) [SULPIRIDE] is 274.6 mg/dL

The recorded Fbg for O=C(N[C@H](CO)[C@H](O)c1ccc([N+](=O)[O-])cc1)C(Cl)Cl is 273.2 mg/dL

The recorded Fbg for CC(C)(S)[C@@H](N)C(=O)O is 294.8 mg/dL

* * *

# Organism: Rattus norvegicus
# run-description: Open TG-GATES - Regimen: Single
# Assay type: toxicity, organism-based, Sprague-Dawley
# Parameters: regimen Single, gender Male, age 6 weeks
# run-parameters: in vivo, po, 0 mg/kg, 24 h, tissue Plasma, route gavage, dose level Control
measure: TC
Answer format reminder: number followed by unit.

The recorded TC for CC(=O)Oc1cc(C(C)C)c(OCCN(C)C)cc1C is 79.8 mg/dL

The recorded TC for CCC(C)(C)C(=O)O[C@H]1C[C@@H](C)C=C2C=C[C@H](C)[C@H](CC[C@@H]3C[C@@H](O)CC(=O)O3)[C@H]21 is 79.6 mg/dL

The recorded TC for C#C[C@]1(O)CC[C@H]2[C@@H]3CCc4cc(O)ccc4[C@H]3CC[C@@]21C is 84.6 mg/dL

The recorded TC for CCN1CCCC1CNC(=O)c1cc(S(N)(=O)=O)ccc1OC (stereo not given) [SULPIRIDE] is 74 mg/dL

The recorded TC for O=C(N[C@H](CO)[C@H](O)c1ccc([N+](=O)[O-])cc1)C(Cl)Cl is 86.8 mg/dL

The recorded TC for Oc1ncnc2[nH]ncc12 is 81.6 mg/dL

The recorded TC for CC(=N)S [THIOACETAMIDE] is 77.2 mg/dL

The recorded TC for CN1C(=O)OC(C)(C)C1=O is 85.6 mg/dL

The recorded TC for Nc1nc(N)c2nc(-c3ccccc3)c(N)nc2n1 is 80.2 mg/dL

The recorded TC for O=C(O)c1cccnc1 is 74.6 mg/dL

* * *

# Species: Rattus norvegicus
# run-description: Open TG-GATES - Regimen: Daily Repeat
# Assay type: toxicity, organism-based, Sprague-Dawley
# Set-up: regimen Daily Repeat, gender Male, age 6 weeks
# run-parameters: in vivo, po, 1000 mg/kg, […], tissue Blood, route gavage, dose level High, time 14 day
measure: Mono
Answer format reminder: number followed by unit.

The recorded Mono for O=C(O)c1cccnc1 [NIACIN] is 2.4%

The recorded Mono for CC(C)(S)[C@@H](N)C(=O)O [PENICILLAMINE] is 2.2%

The recorded Mono for O=C(N[C@H](CO)[C@H](O)c1ccc([N+](=O)[O-])cc1)C(Cl)Cl [CHLORAMPHENICOL] is 2.8%

The recorded Mono for CCN1CCCC1CNC(=O)c1cc(S(N)(=O)=O)ccc1OC (centres undefined) [SULPIRIDE] is 2.2%

* * *

# Species on record: Rattus norvegicus
# run-description: Open TG-GATES - Regimen: Daily Repeat
# Assay type: toxicity, organism-based, Sprague-Dawley
# Parameters: regimen Daily Repeat, gender Male, age 6 weeks
# run-parameters: in vivo, po, 0 mg/kg, 72 h, tissue Blood, route gavage, dose level Control, time 3 day
measure: WBC (x10_2/uL)
Give the value in x10_2/uL but do not write x10_2/uL after it.

The recorded WBC for CCc1oc2ccccc2c1C(=O)c1cc(I)c(O)c(I)c1 is 99.6

The recorded WBC for CC(C)(S)[C@@H](N)C(=O)O is 113.2

The recorded WBC for C[C@]12CCC(=O)C=C1CC[C@@H]1[C@@H]2CC[C@@]2(C)[C@H]1CC[C@]2(C)O is 73.9

The recorded WBC for CN1C(=O)OC(C)(C)C1=O is 85.5

The recorded WBC for CC(=O)Oc1cc(C(C)C)c(OCCN(C)C)cc1C is 102.1

* * *

# Species: Rattus norvegicus
# run-description: Open TG-GATES - Regimen: Daily Repeat
# Format: toxicity, organism-based, Sprague-Dawley
# Design: regimen Daily Repeat, gender Male, age 6 weeks
# run-parameters: in vivo, po, 300 mg/kg, […], tissue Blood, route gavage, dose level Middle, time 7 day
measure: Ret (%)
Give the value in % but do not write % after it.

The recorded Ret for O=C(O)c1cccnc1 [NIACIN] is 6

The recorded Ret for CCN1CCCC1CNC(=O)c1cc(S(N)(=O)=O)ccc1OC (centres undefined) [SULPIRIDE] is 4.9

The recorded Ret for O=C(N[C@H](CO)[C@H](O)c1ccc([N+](=O)[O-])cc1)C(Cl)Cl [CHLORAMPHENICOL] is 4.8

The recorded Ret for CC(C)(S)[C@@H](N)C(=O)O [PENICILLAMINE] is 5.9

* * *

Kindly state PL for each of the entries shown.
# Species on record: Rattus norvegicus
# run-description: Open TG-GATES - Regimen: Daily Repeat
# Assay type: toxicity, organism-based, Sprague-Dawley
# Design: regimen Daily Repeat, gender Male, age 6 weeks
# run-parameters: in vivo, po, 1000 mg/kg, […], tissue Plasma, route gavage, dose level High, time 28 day
Give the value in mg/dL but do not write mg/dL after it.

The recorded PL for CCN1CCCC1CNC(=O)c1cc(S(N)(=O)=O)ccc1OC (centres undefined) [SULPIRIDE] is 136.2

The recorded PL for O=C(N[C@H](CO)[C@H](O)c1ccc([N+](=O)[O-])cc1)C(Cl)Cl is 131.6

The recorded PL for CC(C)(S)[C@@H](N)C(=O)O is 137.6

The recorded PL for O=C(O)c1cccnc1 is 152
